B1: Hairpin Ribozyme (parent)
chain: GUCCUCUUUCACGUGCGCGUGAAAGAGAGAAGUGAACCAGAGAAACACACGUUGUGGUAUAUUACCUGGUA

# Variants of: B1
# assay_procedure: self-cleavage, relative activity (ratio to wild type); higher = more cleavage; co-transcriptional
Label scheme for self-cleavage: lower than 0.2 is Not met, 0.2 and above is Met.

1. C48G U63C = Not met
2. G15U U67C = Met
3. U7G A45C = Not met
4. A23C G57C = Not met
5. A31G G57U = Met
6. U55G U62G = Not met
7. G25C U52G = Met
8. U55G G68U = Not met
9. G19C C46U = Met
10. G40A A59C = Not met

Enquiry: Determine whether this variant has self-cleavage no lower than 0.2: U33C C37A
Return: Not met

Enquiry: Would you mind doing U8C A23G as well?
Return: Met

Enquiry: Would you mind doing G27A A61C as well?
Return: Not met

Enquiry: Would you mind doing C12A U33G as well?
Return: Not met

Enquiry: Would you mind doing C4A A61U as well?
Return: Not met

Enquiry: Would you mind doing U2G C12G as well?
Return: Not met

Enquiry: Would you mind doing C4G U60G as well?
Return: Not met

Enquiry: Would you mind doing C6U G13C as well?
Return: Met

Enquiry: Would you mind doing U14C G56C as well?
Return: Not met

Enquiry: Would you mind doing C6U G13A as well?
Return: Met
